experimental.setup: 308.15 K; 101 kPa; Liquid; Vibrating tube method
± gives the expanded uncertainty stated by the source.
measure.name: mass density

[
  {
    "compound": "CCCCCO [pentan-1-ol]",
    "mass density": "803.38 ± 0.24 kg/m3"
  },
  {
    "compound": "CCCCCCO [hexan-1-ol]",
    "mass density": "808.06 ± 0.4 kg/m3"
  },
  {
    "compound": "Cc1ccccc1Cl [2-chlorotoluene]",
    "mass density": "1068.21 ± 0.15 kg/m3"
  },
  {
    "compound": "CCCCO [butan-1-ol]",
    "mass density": "798.24 ± 0.17 kg/m3"
  },
  {
    "compound": "CCCO [propan-1-ol]",
    "mass density": "791.65 ± 0.17 kg/m3"
  }
]

*Q* Recorded mass density for CCCCCCCO [heptan-1-ol] , please?
*A* 811.62 ± 0.16 kg/m3
